- assay.overview: Cellular Toxicity (caspase-3) Hek293 (AID 664);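 further: cells exposed to compound for 16 h at 37 °C before readout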
- stated.conditions: HEK293 caspase-3 activation, DMSO = 0%, 100 µM tamoxifen = 100%; at 92.2 µM (top of the series)
- Source text: NIH Chemical Genomics Center [NCGC] NIH Molecular Libraries Screening Centers Network [MLSCN] National Institutes of Environmental Health Sciences [NIEHS] National Toxicology Program [NTP] We have developed a 1536-well cell-based assay for quantitative high throughput screening (qHTS) against a number of cell lines to determine in vitro caspase 3/7 of small molecules. […] 8. Detection; Luminescence; Viewlux plate reader […]
Results filed as inconclusive are left out.
recorded.metric: caspase-3 activation (%)
One number for each entry, in %.

O=[N+]([O-])c1cc([N+](=O)[O-])c2ccc(S(=O)(=O)O)cc2c1O | 1.41
Oc1ccc2cc(SSc3ccc4cc(O)ccc4c3)ccc2c1 | 15.1
Cc1cccc(O)c1C | 0.349

Provide caspase-3 activation values for the following items, in order.
1. C=C(C)c1ccccc1
2. O=C1OC(O)C(C(Cl)Cl)=C1Cl (stereo unspecified)
3. O=C=Nc1ccc(Cc2ccc(N=C=O)cc2)cc1
4. CO[C@H]1/C=C/O[C@@]2(C)Oc3c(C)c(O)c4c(O)c(c5c(c4c3C2=O)NC2(CCN(CC(C)C)CC2)N=5)=NC(=O)/C(C)=C\C=C\[C@H](C)[C@H](O)[C@@H](C)[C@@H](O)[C@@H](C)[C@H](OC(C)=O)[C@@H]1C
5. c1cc(OCC2CO2)cc(OCC2CO2)c1 (stereo unspecified)
6. CNc1ccc(O)cc1
7. O=Cc1ccc(Cl)c(Cl)c1

// result
[0.697, 0.823, -1.82, -2.49, 8.84, -11.1, 1.45]

// query # query: caspase-3 activation of entry "C=CC(=O)OCC(CO)(COC(=O)C=C)COC(=O)C=C"
// result -6.03

====

- assay.overview: Cell Viability - LYMP2-010 (AID 981);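 further: cells exposed to compound for 24 hours at 37 °C; nearly all actives have a fitted effect of over 55% in size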
- stated.conditions: LYMP2-010 lymphoblastoid cell viability, qHTS; series mostly up to 92.2 µM
Results filed as inconclusive are left out. The source made the active and inactive calls. Calls come from the whole dose curve; as a rule, active = well fitted cell-killing curve with a large enough effect; inconclusive = small, poorly fitted or top-dose-only effect; inactive = flat fitted curve, though single readings scatter.
Respond only with the outcome that fits, drawn from active, inactive

Some solved entries appear below for comparison.
CNc1ccc(O)cc1 | active
O=C(/C=C/c1ccc(O)c(O)c1)OC1C[C@](O)(C(=O)O)C[C@@H](O)[C@H]1O (some centres undefined) | inactive

// query How did this test come out for "O=C(OCC(COC(=O)c1ccccc1)(COC(=O)c1ccccc1)COC(=O)c1ccccc1)c1ccccc1" ?
// result inactive

// query Lookup "CCCCCC/C(C=O)=C\c1ccccc1"
// result inactive

====

- System: CP262
- assay.overview: qHTS profiling for inhibitors of Plasmodium falciparum proliferation (AID 504749); further: nearly all actives have a fitted effect of over 60% in size
- stated.conditions: P. falciparum in erythrocytes, SYBR Green DNA, 72 h; series mostly up to 28.7 µM
Inconclusive results are not listed. Calls of active or inactive are those of the source. The call rests on the fitted dose curve; in most records, active means well fitted inhibition curve with a large enough effect; inconclusive means small, poorly fitted or top-dose-only effect; inactive means flat fitted curve, though single readings scatter.
Pick one and only one: 1 (active), 0 (inactive)

# count of solved cases: 8
CC(=O)C1(O)Cc2c(O)c3c(c(O)c2C(OC2CC(N)C(O)C(C)O2)C1)C(=O)c1c(O)cccc1C3=O (centres undefined) | 1
CO[C@H]1OC2O[C@@]3(C)CC[C@H]4[C@H](C)CC[C@@H]([C@H]1C)[C@@]24OO3 (some centres undefined) | 1
Nc1nc2[nH]cc(CCc3ccc(C(=O)NC(CCC(=O)O)C(=O)O)cc3)c2c(=O)[nH]1 (centres undefined) | 1
Cc1cnc(NC(=O)C2C(=O)c3ccccc3S(=O)(=O)N2C)s1 (centres undefined) | 0
CC1=C(C/C=C(\C)CCCC(C)CCCC(C)CCCC(C)C)C(=O)c2ccccc2C1=O (centres undefined) | 0
CC(=O)OC1C([N+]2(C)CCCCC2)C[C@H]2C3CC[C@H]4C[C@H](OC(C)=O)C([N+]5(C)CCCCC5)CC4(C)C3CCC12C (some centres undefined) | 0
C[C@@H]1CC2[C@@H]3C[C@H](F)C4=CC(=O)C(Cl)=C[C@]4(C)[C@@]3(F)[C@H](O)C[C@]2(C)[C@@]1(O)C(=O)CO (some centres undefined) | 0
CCN(CC)C(=O)Nc1ccc(OC[C@H](O)CNC(C)(C)C)c(C(C)=O)c1 | 0

// query Give the logged outcome of this assay for the following compound: "COc1ccc(S(=O)(=O)N2c3ccc(Cl)cc3[C@](O)(c3ccccc3Cl)[C@@H]2C(=O)N2CCC[C@H]2C(N)=O)cc1OC"
// result 0

// query CC(=O)OCC(=O)[C@@]1(O)CCC2C3CCC4=CC(=O)C=CC4(C)C3C(O)C[C@]21C (some centres undefined) , same question.
// result 0

// query Same read-out for "C#C[C@@]1(O)CC[C@@H]2[C@H]3CCC4=C/C(=N\O)CC[C@H]4[C@@H]3CC[C@]21CC" ?
// result 0

// query And then "C[C@@H](O)[C@@H]1C(=O)N2C(C(=O)O)=C([C@H]3CCCO3)S[C@H]12" , what is it?
// result 0

// query Same again, this time with CC(=O)N[C@H]1[C@H](O[C@@H]2c3ccc(c(Cl)c3)Oc3cc4cc(c3O[C@@H]3O[C@H](CO)[C@@H](O)[C@H](O)C3C)Oc3ccc(cc3Cl)C[C@H]3NC(=O)[C@@H](N)c5ccc(O)c(c5)Oc5cc(O)cc(c5)[C@H](NC3=O)C(=O)N[C@H]4C(=O)N[C@H]3C(=O)N[C@@H]2C(=O)N[C@@H](C(=O)O)c2cc(O)cc(O[C@H]4O[C@H](CO)[C@@H](O)C(O)[C@@H]4O)c2-c2cc3ccc2O)O[C@H](CO)[C@@H](O)[C@@H]1O (some centres undefined)
// result 0

// query Follow-up item: CC1(C)O[C@@H]2C[C@H]3[C@@H]4CCC5=CC(=O)C=C[C@]5(C)[C@H]4C(O)C[C@]3(C)[C@]2(C(=O)CO)O1 (some centres undefined)
// result 0
